- study_target: T1, human TSH receptor (full length), coated on tubes (human, UniProt P16473 22-764)
- T1 construct: TSHR coated tubes as described in WO2004/050708A2; Exact preparation on the tubes is not detailed here; also called thyroid stimulating hormone receptor
- procedure_summary: competition with 125I-K1-18 IgG on TSHR coated tubes; 100 µg/mL, diluted in HBD serum pool
- Description: Binding inhibition assays were carried out using TSHR coated tubes as described in WO2004/050708A2. […] After aspiration, the tubes were washed and 100 μL of ¹²⁵I-labelled protein (5×10⁴ cpm) added and incubated for 1 hour at room temperature with shaking. The tubes were then aspirated, washed and counted in a gamma counter. Inhibition of labelled protein binding was calculated as 100×[1−(cpm bound in the presence of test material/cpm bound in the presence of control material)].

[
  {
    "binder": "K1-70 IgG (antibody, V domains shown) VH: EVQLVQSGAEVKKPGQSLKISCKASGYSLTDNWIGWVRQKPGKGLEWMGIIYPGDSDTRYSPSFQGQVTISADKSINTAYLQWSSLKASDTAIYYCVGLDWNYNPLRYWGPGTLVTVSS VL: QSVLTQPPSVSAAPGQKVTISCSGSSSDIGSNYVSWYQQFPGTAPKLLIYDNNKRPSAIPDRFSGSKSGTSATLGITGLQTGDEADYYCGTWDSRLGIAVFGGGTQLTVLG",
    "Inhibition of binding (%)": "95.3%"
  }
]
